meta.source: the supplement of paper PMC11061612

test system: TK10 (Kidney Carcinoma); assay: Bliss excess, mean over the matrix (fraction); higher = more synergy
// reported Bliss excess per item
Give the figure by itself; no unit, no explanation.

Use the examples below as a reference point.
Compound	Bliss excess
CCN(CCO)CCCOc1ccc2c(Nc3cc(CC(=O)Nc4cccc(F)c4)[nH]n3)ncnc2c1 [AZD2811] + O=C(c1cc(Cc2n[nH]c(=O)c3ccccc23)ccc1F)N1CCN(C(=O)C2CC2)CC1 [Olaparib] (first compound max 1 µM, 7x7, partner max 10 µM)	-0.0391
O=C(c1cc(Cc2n[nH]c(=O)c3ccccc23)ccc1F)N1CCN(C(=O)C2CC2)CC1 [Olaparib] + Cc1c2c(nn1C)CSCc1cc(n(C)n1)CSc1cc(c3ccccc3c1)OCCCc1c(C(=O)O)n(C)c3c-2c(Cl)ccc13 [AZD5991] (first compound max 10 µM, 7x7, partner max 1 µM)	-0.0699
Cn1cnc2c(F)c(Nc3ccc(Br)cc3Cl)c(C(=O)NOCCO)cc21 [Selumetinib] + C=CCn1c(=O)c2cnc(Nc3ccc(N4CCN(C)CC4)cc3)nc2n1-c1cccc(C(C)(C)O)n1 [AZD1775] (first compound max 10 µM, partner max 1 µM)	-0.0412
NC1(C(=O)N[C@@H](CCO)c2ccc(Cl)cc2)CCN(c2ncnc3[nH]ccc23)CC1 [Capivasertib] + CCN(CCO)CCCOc1ccc2c(Nc3cc(CC(=O)Nc4cccc(F)c4)[nH]n3)ncnc2c1 [AZD2811] (first compound max 10 µM, 7x7, partner max 1 µM)	-0.0434
COc1cccc(OCCCN)c1-c1cc(Nc2cnc(C#N)cn2)n[nH]1 [Prexasertib] + CN(C)CCCOc1ccc(-c2ccc3ncc4c(c3c2)n(C2CCOCC2)c(=O)n4C)cn1 [AZD0156] (first compound max 1 µM, 7x7, partner max 1 µM)	-0.0239
NC1(C(=O)N[C@@H](CCO)c2ccc(Cl)cc2)CCN(c2ncnc3[nH]ccc23)CC1 [Capivasertib] + Cn1cnc2c(F)c(Nc3ccc(Br)cc3Cl)c(C(=O)NOCCO)cc21 [Selumetinib] (first compound max 10 µM, 7x7, partner max 10 µM)	0.0043

In: Please report Bliss excess for the following compound: CC1(C)CCC(CN2CCN(c3ccc(C(=O)NS(=O)(=O)c4ccc(NCC5CCOCC5)c([N+](=O)[O-])c4)c(Oc4cnc5[nH]ccc5c4)c3)CC2)=C(c2ccc(Cl)cc2)C1 [Venetoclax] + C[C@@H](Nc1cc(F)cc(F)c1)c1cc(C(=O)N(C)C)cc2c(=O)cc(N3CCOCC3)oc12 [AZD8186] (first compound max 1 µM, 7x7, partner max 3 µM)
Out: -0.0887

---

tested on: AMO-1 (Plasma Cell Myeloma); test: Bliss excess, mean over the matrix (fraction); higher = more synergy
Property Name: Bliss excess
Provide a numeric answer; units are not to be included.

The examples below pair each entry with its known result.
Compound	System Name	Bliss excess
CN(CCO)CC[C@H](CSc1ccccc1)Nc1ccc(S(=O)(=O)NC(=O)c2ccc(N3CCC([C@@H](O)c4ccccc4-c4ccc(Cl)cc4)CC3)cc2)cc1S(=O)(=O)C(F)(F)F [AZD4320] + CCN(CCO)CCCOc1ccc2c(Nc3cc(CC(=O)Nc4cccc(F)c4)[nH]n3)ncnc2c1 [AZD2811] (first compound max 1 µM, 7x7, partner max 1 µM)	AMO-1 (Plasma Cell Myeloma)	-0.0102
CC1(C)CCC(CN2CCN(c3ccc(C(=O)NS(=O)(=O)c4ccc(NCC5CCOCC5)c([N+](=O)[O-])c4)c(Oc4cnc5[nH]ccc5c4)c3)CC2)=C(c2ccc(Cl)cc2)C1 [Venetoclax] + Cc1cc2ncnn2cc1Nc1ncc2c(n1)n(C1CCOCC1)c(=O)n2C [AZD7648] (first compound max 1 µM, 7x7, partner max 10 µM)	AMO-1 (Plasma Cell Myeloma)	-0.0116
COc1nnc2ccc(N3CCC(c4ccc(OCCN5CCN(C)C(=O)[C@H]5C)cc4)CC3)nn12 [AZD5153] + CC1(C)CCC(CN2CCN(c3ccc(C(=O)NS(=O)(=O)c4ccc(NCC5CCOCC5)c([N+](=O)[O-])c4)c(Oc4cnc5[nH]ccc5c4)c3)CC2)=C(c2ccc(Cl)cc2)C1 [Venetoclax] (first compound max 1 µM, 7x7, partner max 1 µM)	AMO-1 (Plasma Cell Myeloma)	-0.0483
Cc1cc2ncnn2cc1Nc1ncc2c(n1)n(C1CCOCC1)c(=O)n2C [AZD7648] + COc1cc([C@@H]2c3cc4c(cc3[C@@H](O[C@@H]3O[C@@H]5CO[C@@H](C)O[C@H]5[C@H](O)[C@H]3O)[C@H]3COC(=O)[C@H]23)OCO4)cc(OC)c1O [Etoposide] (first compound max 10 µM, 7x7, partner max 10 µM)	AMO-1 (Plasma Cell Myeloma)	0.138
CN(CCO)CC[C@H](CSc1ccccc1)Nc1ccc(S(=O)(=O)NC(=O)c2ccc(N3CCC([C@@H](O)c4ccccc4-c4ccc(Cl)cc4)CC3)cc2)cc1S(=O)(=O)C(F)(F)F [AZD4320] + C1CN(CCC1(C(=O)N[C@@H](CCO)C2=CC=C(C=C2)Cl)N)C3=NC=NC4=C3C=CN4 [Capivasertib] (first compound max 1 µM, 7x7, partner max 3 µM)	AMO-1 (Plasma Cell Myeloma)	-0.0045

In: Return reported Bliss excess. Input compound: N#Cc1cnc(Nc2cc(NC[C@H]3CNCCO3)c(C(F)(F)F)cn2)cn1 [SRA737] + C=CCn1c(=O)c2cnc(Nc3ccc(N4CCN(C)CC4)cc3)nc2n1-c1cccc(C(C)(C)O)n1 [AZD1775] (first compound max 10 µM, partner max 1 µM)
Out: 0.0986

---

tested on: HGC-27 (Gastric Carcinoma); test: combination Emax (second highest fraction inhibited in the dose matrix, 72 h); higher = more inhibition; extreme values may be limits of the assay
Reported combination Emax values are given for each entry in this list.
Just the number, please.

Study these solved cases before continuing.
Compound	System Name	combination Emax
CCN(CCO)CCCOc1ccc2c(Nc3cc(CC(=O)Nc4cccc(F)c4)[nH]n3)ncnc2c1 [AZD2811] + C=CCn1c(=O)c2cnc(Nc3ccc(N4CCN(C)CC4)cc3)nc2n1-c1cccc(C(C)(C)O)n1 [AZD1775] (first compound max 1 µM, partner max 1 µM)	HGC-27 (Gastric Carcinoma)	0.896
CC1(C)CCC(CN2CCN(c3ccc(C(=O)NS(=O)(=O)c4ccc(NCC5CCOCC5)c([N+](=O)[O-])c4)c(Oc4cnc5[nH]ccc5c4)c3)CC2)=C(c2ccc(Cl)cc2)C1 [Venetoclax] + C[C@@H]1COCCN1C2=NC(=NC(=C2)C3(CC3)[S@](=N)(=O)C)C4=C5C=CNC5=NC=C4 [AZD6738] (first compound max 1 µM, 7x7, partner max 10 µM)	HGC-27 (Gastric Carcinoma)	0.8

We now examine a further compound.
In: Answer with the recorded combination Emax for the compound listed here: COc1cccc(OCCCN)c1-c1cc(Nc2cnc(C#N)cn2)n[nH]1 [Prexasertib] + C=CCn1c(=O)c2cnc(Nc3ccc(N4CCN(C)CC4)cc3)nc2n1-c1cccc(C(C)(C)O)n1 [AZD1775] (first compound max 1 µM, partner max 1 µM)
Out: 0.991

---

tested on: EoL-1-cell (Acute Myeloid Leukemia); assay: combination Emax (second highest fraction inhibited in the dose matrix, 72 h); higher = more inhibition; extreme values may be limits of the assay
Below is a list of entries, each paired with its recorded combination Emax value.

Take a look at these entries with their results.
Molecule	Property Name	Experimental Result
Cc1c2c(nn1C)CSCc1cc(n(C)n1)CSc1cc(c3ccccc3c1)OCCCc1c(C(=O)O)n(C)c3c-2c(Cl)ccc13 [AZD5991] + CN(C)CCCOc1ccc(-c2ccc3ncc4c(c3c2)n(C2CCOCC2)c(=O)n4C)cn1 [AZD0156] (first compound max 1 µM, 7x7, partner max 1 µM)	combination Emax	0.999
C=CCn1c(=O)c2cnc(Nc3ccc(N4CCN(C)CC4)cc3)nc2n1-c1cccc(C(C)(C)O)n1 [AZD1775] + C[C@@H]1COCCN1C2=NC(=NC(=C2)C3(CC3)[S@](=N)(=O)C)C4=C5C=CNC5=NC=C4 [AZD6738] (first compound max 1 µM, partner max 10 µM)	combination Emax	1
C[C@@H]1COCCN1c1cc(C2([S@](C)(=N)=O)CC2)nc(-c2ccnc3[nH]ccc23)n1 [AZD6738] + O=C(c1cc(Cc2n[nH]c(=O)c3ccccc23)ccc1F)N1CCN(C(=O)C2CC2)CC1 [Olaparib] (first compound max 10 µM, 7x7, partner max 10 µM)	combination Emax	0.992

In: Consider the molecule NC1(C(=O)N[C@@H](CCO)c2ccc(Cl)cc2)CCN(c2ncnc3[nH]ccc23)CC1 [Capivasertib] + CCN(CCO)CCCOc1ccc2c(Nc3cc(CC(=O)Nc4cccc(F)c4)[nH]n3)ncnc2c1 [AZD2811] (first compound max 10 µM, 7x7, partner max 1 µM) . State its measured combination Emax.
Out: 1

---

system: NB69 (Neuroblastoma); assay: Bliss excess, mean over the matrix (fraction); higher = more synergy
Property Name: Bliss excess
Would you mind answering with just the numeric figure?

In: Output Bliss excess of Cc1cc2ncnn2cc1Nc1ncc2c(n1)n(C1CCOCC1)c(=O)n2C [AZD7648] + CN(C)CCCOc1ccc(-c2ccc3ncc4c(c3c2)n(C2CCOCC2)c(=O)n4C)cn1 [AZD0156] (first compound max 10 µM, 7x7, partner max 1 µM)
Out: -0.0382

In: Identify the reported Bliss excess for the following entry. O=C(c1cc(Cc2n[nH]c(=O)c3ccccc23)ccc1F)N1CCN(C(=O)C2CC2)CC1 [Olaparib] + Cc1c2c(nn1C)CSCc1cc(n(C)n1)CSc1cc(c3ccccc3c1)OCCCc1c(C(=O)O)n(C)c3c-2c(Cl)ccc13 [AZD5991] (first compound max 10 µM, 7x7, partner max 1 µM)
Out: -0.0042

In: Using the record for CCN(CCO)CCCOc1ccc2c(Nc3cc(CC(=O)Nc4cccc(F)c4)[nH]n3)ncnc2c1 [AZD2811] + C[C@@H]1COCCN1C2=NC(=NC(=C2)C3(CC3)[S@](=N)(=O)C)C4=C5C=CNC5=NC=C4 [AZD6738] (first compound max 1 µM, 7x7, partner max 10 µM) , state its measured Bliss excess.
Out: -0.0806
